- measurement target: Grb2 SH2 (UniProt P62993)
- Sequence (P62993 whole entry, looked up): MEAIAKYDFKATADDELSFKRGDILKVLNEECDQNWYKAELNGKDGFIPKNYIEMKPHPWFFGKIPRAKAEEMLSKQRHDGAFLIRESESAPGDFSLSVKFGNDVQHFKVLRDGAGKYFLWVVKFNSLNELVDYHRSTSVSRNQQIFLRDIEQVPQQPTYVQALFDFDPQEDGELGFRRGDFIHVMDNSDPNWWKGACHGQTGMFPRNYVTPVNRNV
- assay details: SH2 binding enrichment of the phosphorylated peptide, bacterial display (enrichment ratio); higher = better substrate or ligand; peptides without Tyr show the background
SH2 binding enrichment below 0.9 gives NOT MET; SH2 binding enrichment at or above it gives MET.

Sample answers from the record:
sequence code	cat
VHNLDYYKQTT [FGFR3_Y647_K650Q]	MET
QHNPEYVQQAS [LRRC7_Y1058]	NOT MET
IGSQRYQLGVR [RB1_Y446_K447Q]	MET
SSSGGYGGGFG [KRT19_Y61_A60G_YF]	MET
DWQQEYVLNES [TGM1_Y267_R264Q]	NOT MET

# check: SH2 binding enrichment of LERYIYNPEEF [HLA-DPB1_Y59_R61P] is greater than or equal to 0.9
NOT MET

Does the reported SH2 binding enrichment for NAPNSYGRRPS [CDKN2A_Y44_I49S] fall at or above the 0.9 mark?
NOT MET

----------
- measurement target: EPHB2 (UniProt P29323)
- Sequence (P29323 whole entry, looked up): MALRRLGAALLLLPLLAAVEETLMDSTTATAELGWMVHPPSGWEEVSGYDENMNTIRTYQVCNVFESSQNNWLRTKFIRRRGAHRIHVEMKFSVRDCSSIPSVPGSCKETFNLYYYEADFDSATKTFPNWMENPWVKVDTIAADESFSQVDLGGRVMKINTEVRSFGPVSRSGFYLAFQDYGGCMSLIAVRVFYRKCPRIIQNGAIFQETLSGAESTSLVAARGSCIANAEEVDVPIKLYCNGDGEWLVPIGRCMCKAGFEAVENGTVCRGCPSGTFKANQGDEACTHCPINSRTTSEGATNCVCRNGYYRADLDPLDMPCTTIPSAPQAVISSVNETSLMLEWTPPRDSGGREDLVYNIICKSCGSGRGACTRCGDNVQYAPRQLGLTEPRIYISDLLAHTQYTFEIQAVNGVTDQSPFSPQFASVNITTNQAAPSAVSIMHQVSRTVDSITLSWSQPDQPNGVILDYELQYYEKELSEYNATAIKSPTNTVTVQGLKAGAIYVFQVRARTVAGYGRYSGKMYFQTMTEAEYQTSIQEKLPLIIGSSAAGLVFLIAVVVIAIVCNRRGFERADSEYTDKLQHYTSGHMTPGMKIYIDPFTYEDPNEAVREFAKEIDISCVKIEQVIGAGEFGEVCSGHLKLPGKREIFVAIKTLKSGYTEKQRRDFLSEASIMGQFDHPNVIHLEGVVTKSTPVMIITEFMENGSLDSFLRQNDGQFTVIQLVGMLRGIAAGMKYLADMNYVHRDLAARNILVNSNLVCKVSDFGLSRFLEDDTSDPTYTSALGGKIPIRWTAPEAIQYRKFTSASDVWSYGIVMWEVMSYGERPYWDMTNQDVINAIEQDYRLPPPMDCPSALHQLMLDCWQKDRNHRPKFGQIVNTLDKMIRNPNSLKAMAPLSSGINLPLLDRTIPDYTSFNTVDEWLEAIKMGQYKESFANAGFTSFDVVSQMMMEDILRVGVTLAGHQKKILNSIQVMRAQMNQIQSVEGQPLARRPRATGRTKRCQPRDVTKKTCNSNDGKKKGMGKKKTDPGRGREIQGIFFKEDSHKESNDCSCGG
- assay details: phosphorylation enrichment, bacterial display (enrichment ratio); higher = better substrate or ligand; peptides without Tyr show the background
observed property: phosphorylation enrichment
One number for each entry.

Okay, here is my list. What is phosphorylation enrichment for each of these?
1. GIVEDYRPPFC [ACVRL1_Y421_Y426C]
2. STTSDYQWDVS [MTDH_Y364]

1. 0.532
2. 0.615

Hi team, please reply with phosphorylation enrichment for each item in this list.
1. PADCRYFTFPQ [GAMT_Y222_A224T_YF]
2. QLAPQYTFAQG [FLNA_Y1761_YF]

1: 0.483; 2: 0.523

----------
- measurement target: Fyn (UniProt P06241)
- Sequence (P06241 whole entry, looked up): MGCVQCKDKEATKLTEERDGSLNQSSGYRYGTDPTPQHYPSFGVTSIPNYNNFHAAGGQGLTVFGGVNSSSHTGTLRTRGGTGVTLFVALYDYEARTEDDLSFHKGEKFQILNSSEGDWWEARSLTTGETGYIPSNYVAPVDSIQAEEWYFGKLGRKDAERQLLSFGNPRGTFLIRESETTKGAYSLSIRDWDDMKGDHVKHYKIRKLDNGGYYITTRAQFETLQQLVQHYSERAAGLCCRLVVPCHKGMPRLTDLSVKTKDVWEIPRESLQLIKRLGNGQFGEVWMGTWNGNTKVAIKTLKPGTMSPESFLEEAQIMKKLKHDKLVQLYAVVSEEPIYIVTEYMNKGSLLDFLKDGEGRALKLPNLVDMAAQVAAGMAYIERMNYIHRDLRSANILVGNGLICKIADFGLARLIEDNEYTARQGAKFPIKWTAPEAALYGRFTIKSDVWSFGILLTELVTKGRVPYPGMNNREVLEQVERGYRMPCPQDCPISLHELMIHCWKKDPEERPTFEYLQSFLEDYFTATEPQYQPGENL
- assay details: phosphorylation enrichment, bacterial display (enrichment ratio); higher = better substrate or ligand; peptides without Tyr show the background
Exercise: state measured phosphorylation enrichment for each of the sequences provided.
Answers are plain numbers.

Before answering, review these 6 worked examples.
sequence code	phosphorylation enrichment
AFGTVYKGLWI [EGFR_Y727]	0.593
CTTIHYNFMRN [TP53_Y234_C238R_YF]	0.568
CGTPTYLAPEV [CHEK2_Y390]	0.627
EDASEYYENYI [PARP4_Y214_F215Y]	0.738
IGMFSYVMLAS [GGCX_Y301]	0.444
GMEIVYVFVKK [DNAI2_Y5_YF]	0.554

List the reported phosphorylation enrichment of each sequence below.
1. PQIVNYSPDCI [LDHB_Y128_K127N]
2. SIKDKHVTALY [KCNH2_Y611_Y611H]

1: 0.457; 2: 0.409

For each of the items listed, what is its phosphorylation enrichment?
1. RHPEVYHHLGI [NVL_Y290_V295I]
2. YKEQGYHRLPS [RIN1_Y681_P686S]
3. LQTFRYHGHSM [PDHA1_Y289_YF]
4. YPPTHYIRRVP [SLC4A11_Y820]
5. ANNEYYFRVCA
6. RMETEYGPSVT [MXRA5_Y2717]
7. KNRDVYSSDFF [USP24_Y2134_YF]
8. GIVEDYRPPFC [ACVRL1_Y421_Y426C]

1: 0.908; 2: 0.366; 3: 0.948; 4: 0.444; 5: 0.471; 6: 0.823; 7: 0.833; 8: 0.492

# return phosphorylation enrichment for each item in the list
1. ESKKHYGYSLY [ANXA3_Y295_F291S]
2. IRTIDYRYTVC [IDS_Y497_W502C]

1: 0.454; 2: 0.51

Where do these numbers come from? They come from the supplement of paper PMC10065799.
